Experiment: NCI Yeast Anticancer Drug Screen. Data for the rad50EPP+ strain (AID 151);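 also: 0% = growth of vehicle-treated control cultures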
Conditions: S. cerevisiae rad50 mutant strain, at 100.0 µM, stronger effect = higher value
Protocol: Growth inhibition of yeast strains with defined genetic alterations is measured as a screen for potential anti-cancer activity. Selected strains with alterations in DNA damage repair or cell cycle control were exposed to compounds and growth inhibition was measured relative to vehicle treated controls. The strain used in this assay is rad50EPP+
The panel holds about 79,000 compounds, 15% with a hit somewhere; the sample as a whole holds those more often.
Lab note: class by growth inhibition, see group 1: < 40%; group 2: ≥ 40% and < 90%; group 3: ≥ 90%

[[record]]
molecule = "CCCCOC(=O)CSSCC(=O)OCCCC"
label = "group 3"

[[record]]
molecule = "CN(CC(=O)O)c1ccc(/C=C/c2ccnc3ccccc23)cc1"
label = "group 2"


(Q) Hey, which category is CC(=O)O[C@H]1C(=O)[C@@]2(C)[C@H]([C@H](OC(=O)c3ccccc3)[C@]3(O)C[C@H](OC(=O)[C@H](O)[C@@H](NC(=O)c4ccccc4)c4ccccc4)C(C)=C1C3(C)C)[C@]1(OC(C)=O)CO[C@@H]1C[C@@H]2O in, do you know?
(A) group 1

(Q) Which bin should I file [N-]=[N+]=NC(c1ccccc1)(c1ccccc1)c1ccccc1 under?
(A) group 1

(Q) Into which category would you place N#C/C(=C\c1ccccc1)c1ccccc1F ?
(A) group 1

(Q) Lab note: which band did COc1ccc(/C=C2\SC(=S)N(C=C3C(=O)NC(=S)NC3=O)C2=O)cc1OC land in?
(A) group 2

(Q) Which of the defined bands does the recorded growth inhibition of CCOC(=O)C1=C(C)NC(C)=C(C(=O)OCC)C1c1ccc(C)cc1 sit within?
(A) group 1

(Q) Band for O=c1[nH]cc(/C=N\Nc2ccccc2)c(=O)[nH]1 ?
(A) group 2
